Reported cell viability values for the following compounds.
Tested on: Calu-3
assay.info: cell viability relative to DMSO; higher = less toxic
condition.description: 72 h; 10000 nM

compound: Cc1ccc2c(-c3ccccc3)nc(=O)n(C(C)C)c2c1
cell viability, %: 117
//
compound: c1ccc(-c2nn3c(c2-c2ccnc4cc(OCCN5CCOCC5)ccc24)CCC3)nc1
cell viability, %: 101
//
compound: O=C(O)C1=CCCN(CCOC(c2ccc(C(F)(F)F)cc2)c2ccc(C(F)(F)F)cc2)C1
cell viability, %: 96.4
//
compound: Cc1ccc(-c2ncc(Cl)cc2-c2ccc(S(C)(=O)=O)cc2)cn1
cell viability, %: 101
//
compound: Cc1ncc(CSSCc2cnc(C)c(O)c2CO)c(CO)c1O
cell viability, %: 105
//
compound: Nc1nc(=O)c2c([nH]1)NCC(CNc1ccc(C(=O)N[C@@H](CCC(=O)O)C(=O)O)cc1)N2C=O (some centres undefined)
cell viability, %: 105
//
compound: COc1oc(=O)c2cc(N)ccc2c1Cl
cell viability, %: 80.9
//
compound: CO/N=C(\C(=O)N[C@@H]1C(=O)N2C(C(=O)O)=CCS[C@H]12)c1csc(N)n1
cell viability, %: 93.4
//
compound: O=C(O[C@H]1C[C@H]2CC[C@@H](C1)[N+]21CCCC1)C(O)(c1ccccc1)c1ccccc1
cell viability, %: 94.3

* * *

Test system: Caco-2
assay.info: cell viability relative to DMSO; higher = less toxic
condition.description: 72 h; 10 nM

molecule: O=C(CCCCCCCn1cc(-c2cccnc2)nn1)Nc1ccccc1-c1ccccc1 [GPP-78]
cell viability [%]: 97.9
//
molecule: O=C(Nc1ccccc1)c1ccccc1O [salicylanilide]
cell viability [%]: 101
//
molecule: O=C(NCc1ccccc1)OCCO [buramate]
cell viability [%]: 105
//
molecule: N=C(N)NC(=O)c1cnn(-c2cccc3ncccc23)c1C1CC1 [zoniporide]
cell viability [%]: 91.8
//
molecule: C=CC1=C(C(=O)O)N2C(=O)[C@@H](NC(=O)/C(=N\O)c3csc(N)n3)[C@H]2SC1 [cefdinir]
cell viability [%]: 98.9
//
molecule: CCC(=O)NC[C@H](Cc1ccc(OCCc2nc(-c3ccccc3)oc2C)cc1)N/C(C)=C\C(=O)c1ccc(C(F)(F)F)cc1 [GW-6471]
cell viability [%]: 102
//
molecule: Cc1cc(OCc2nc(-c3ccccc3Cl)cs2)ccc1OCC(=O)O [GPR120-modulator-1]
cell viability [%]: 97.5
//
molecule: O=C(CBr)N1CC([N+](=O)[O-])([N+](=O)[O-])C1 [RRx-001]
cell viability [%]: 98.3
//
molecule: NC(=O)CNCCC(c1ccccc1)c1ccccc1 [N20C]
cell viability [%]: 98.4

* * *

Tested on: HepG2
assay.info: cell viability relative to DMSO; higher = less toxic
condition.description: 72 h; 10000 nM
Counter-ions that a name gives are not always drawn.

compound: O=C(O)CSc1nnc(Br)n1-c1ccc(C2CC2)c2ccccc12
cell viability [%]: 99.7
--
compound: COc1cc2c(cc1OC(C)C)[C@H](c1ccc(Cl)cc1)N(c1ccc(N(C)C[C@H]3CC[C@H](N4CCN(C)C(=O)C4)CC3)cc1)C(=O)C2
cell viability [%]: 26.1
--
compound: COC(=O)C(c1ccccc1)C1CCCCN1 (stereo not given) [METHYLPHENIDATE HYDROCHLORIDE]
cell viability [%]: 99
--
compound: c1cnc(N2CCN(Cc3ccc4c(c3)OCO4)CC2)nc1
cell viability [%]: 102
--
compound: O=C(c1ccc2nccnc2c1)N1CCCCC1
cell viability [%]: 102
